- ASSAY PROCEDURE: chemical genetic growth profiling, strain panel (AID 1159580);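 further: tested at 20 µM; growth read once vehicle control cultures reached saturation at 30 °C; 1 = growth at the plate median or of vehicle wells; lower values mean less growth of the strain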
- PROTOCOL CONDITIONS: S. cerevisiae deletion strains, growth OD, locus YKL101W, strain HSL1, stronger effect = lower value
The whole screen tested about 5,500 compounds, of which about 2,000 (36%) were called active. Not shown: some 18% with an inconclusive outcome. The list shows a part of the results.
RECORDED METRIC: normalized growth
Answer with a number only.

Worked examples, 6 molecules total:
{"MOLECULE": "CC(=O)c1ccccc1C(=O)c1ccc(C(C)(C)C)cc1", "ASSAY VALUE": 0.976}
{"MOLECULE": "CN1c2ccccc2C(C)(C)C12C=Cc1cc(O)ccc1O2 (stereo unspecified)", "ASSAY VALUE": 0.962}
{"MOLECULE": "C/C(=N/NC(=O)c1ccc(C(C)(C)C)cc1)c1ccccc1O", "ASSAY VALUE": 0.987}
{"MOLECULE": "S=C(N/N=C\\c1cccs1)NC1CC2CCC1C2 (stereo unspecified)", "ASSAY VALUE": 0.949}
{"MOLECULE": "CCOC(=O)c1cnc2c(c(C)nn2C)c1Sc1nnc(SC)s1", "ASSAY VALUE": 0.865}
{"MOLECULE": "O=c1c(-c2ccccc2)c(O)c2cccc3c4ccccc4n1c23", "ASSAY VALUE": 0.113}

Prompt: Given CS/C(Nc1cccc(C(F)(F)F)c1)=C(/C#N)S(=O)(=O)c1ccc(Cl)cc1 , state its recorded normalized growth.
Completion: 0.954

Prompt: Entry COc1ccc(C2CC(c3ccc(C)cc3C)=NN2C(C)=O)cc1 (stereo unspecified) has what normalized growth?
Completion: 0.905

Prompt: Any idea what normalized growth was measured for O=C(Nc1cccnc1)c1cc2c(s1)-c1ccccc1CC2 ?
Completion: 0.811

Prompt: Need normalized growth of Cn1nc(-c2ccccc2)c(O)c(N=Nc2ccccc2)c1=O , thanks.
Completion: 0.921

Prompt: // returns reported normalized growth for input OC(CSc1ccccc1)CN1CCN(c2nc(-c3ccccc3)ns2)CC1 (stereo unspecified)
Completion: 0.927

----------
- ASSAY PROCEDURE: chemical genetic growth profiling, strain panel (AID 1159580);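 further: tested at 20 µM; growth read once vehicle control cultures reached saturation at 30 °C; 1 = growth at the plate median or of vehicle wells; lower values mean less growth of the strain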
- PROTOCOL CONDITIONS: S. cerevisiae deletion strains, growth OD, locus YDR159W, strain sac3, stronger effect = lower value
The whole screen tested about 5,500 compounds, of which about 2,000 (36%) were called active. Not shown: some 18% with an inconclusive outcome. The list shows a part of the results.
RECORDED METRIC: normalized growth
// keep it numeric: no unit symbol after the value

# count of solved cases: 4
{"MOLECULE": "CC(=O)[C@@]1(O)CCC2C3CCC4=CC(=O)CC[C@]4(C)C3CC[C@@]21C (stereo not given in full)", "normalized growth": 0.931}
{"MOLECULE": "Cc1cc(C(C)(C)C)cc(C)c1CC1=NCCN1", "normalized growth": 0.941}
{"MOLECULE": "CC(=O)Oc1cccc2c1C(=O)c1c(OC(C)=O)cc(C(=O)O)cc1C2=O", "normalized growth": 0.9}
{"MOLECULE": "Cc1ccc(N(CC2=NCCN2)c2cccc(O)c2)cc1", "normalized growth": 1}

Now consider the entry below.
Prompt: Quick one: normalized growth of COc1cc2c(cc1OC)[C@@H]1C(=O)c3ccc4c(c3O[C@@H]1CO2)CC(C(C)C)O4 (stereo not given in full) ?
Completion: 0.957

----------
- ASSAY PROCEDURE: chemical genetic growth profiling, strain panel (AID 1159580);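 further: tested at 20 µM; growth read once vehicle control cultures reached saturation at 30 °C; 1 = growth at the plate median or of vehicle wells; lower values mean less growth of the strain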
- PROTOCOL CONDITIONS: S. cerevisiae deletion strains, growth OD, locus YJL154C, strain vps35, stronger effect = lower value
About 2,000 (36%) of roughly 5,500 compounds were called active. Roughly 18% stayed inconclusive and do not appear here. This is one part of the list. *1 amine or outer side, *2 acyl side, *3 side chain or, on linkers, in order; H or OH if unused. Where a SMILES comes first, the peptide text is derived from it. Bridges are numbered along the chain shown (N, C = ends). [ ]: non-standard residue; d: D form. The star is where a group is joined. ξ: configuration not given here. ΔAla(E,3-NHCONH2) = NC(=O)N/C=C(/N)C(=O)O; X2 = NC1=NCCC(C(N[*:1])C(=O)[*:2])N1; ξβ3hOrn = NCCCC(N)CC(=O)*; Dap = NC[CH](N)C(=O)O
RECORDED METRIC: normalized growth
Just the number.

Observe how each entry below is paired with its result.
{"COMPOUND": "C=C(C)[C@@H]1CC[C@]2(CO)CC[C@]3(C)[C@H](CCC4[C@@]5(C)CC[C@H](O)C(C)(C)C5CC[C@]43C)C12 (stereo partly drawn)", "RECORDED METRIC": "normalized growth", "ASSAY VALUE": 0.998}
{"COMPOUND": "CO[C@H]1C[C@H](O[C@H]2[C@H](C)[C@@H](OC3O[C@H](C)C[C@H](N(C)C)[C@H]3OC(C)=O)[C@@H](C)C[C@]3(CO3)C(=O)[C@H](C)[C@@H](OC(C)=O)[C@@H](C)[C@@H](C)OC(=O)[C@@H]2C)O[C@@H](C)[C@@H]1OC(C)=O (stereo partly drawn)", "RECORDED METRIC": "normalized growth", "ASSAY VALUE": 0.987}
{"COMPOUND": "CC1=C(O)C(=O)C=C2C1=CC=C1[C@@]2(C)CC[C@@]2(C)[C@@H]3C[C@](C)(C(=O)O)CC[C@]3(C)CC[C@]12C", "RECORDED METRIC": "normalized growth", "ASSAY VALUE": 0.776}
{"COMPOUND": "CC1=NN(c2ccccc2)C(=O)C1", "RECORDED METRIC": "normalized growth", "ASSAY VALUE": 0.997}
{"COMPOUND": "C1CCC(C(CC2CCCCN2)C2CCCCC2)CC1 (stereo not drawn)", "RECORDED METRIC": "normalized growth", "ASSAY VALUE": 0.964}

Prompt: Please look up its normalized growth: NC(=O)NO
Completion: 1.03

Prompt: # get_value(readout='normalized growth', item= NCCCC(N)CC(=O)NCC1NC(=O)C(CO)NC(=O)C(N)CNC(=O)C(C2CCN=C(N)N2)NC(=O)/C(=C\NC(N)=O)NC1=O (stereo not drawn) (H-[Dap]S[Dap](ξβ3hOrn)[ΔAla(E,3-NHCONH2)][X2]; lactam 1-C; configuration not given here) )
Completion: 1.01

Prompt: What normalized growth value was documented for this compound, CC(=O)Oc1cc2c(c(C)c1OC(C)=O)CC1OC13C2(C)CCC1(C)C2CC(C)(C(=O)O)CCC2(C)CCC13C (stereo not drawn) ?
Completion: 1.01

----------
- ASSAY PROCEDURE: chemical genetic growth profiling, strain panel (AID 1159580);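 further: tested at 20 µM; growth read once vehicle control cultures reached saturation at 30 °C; 1 = growth at the plate median or of vehicle wells; lower values mean less growth of the strain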
- PROTOCOL CONDITIONS: S. cerevisiae deletion strains, growth OD, locus YLR258W, strain gsy2, stronger effect = lower value
Out of some 5,500 compounds screened, about 2,000 (36%) were called active. About 18% were inconclusive and are not listed. This is one part of the list. Where a SMILES comes first, the peptide text is derived from it. Bridges are numbered along the chain shown (N, C = ends). [ ]: non-standard residue; d: D form. The star is where a group is joined. Octanoyl(6-Me) = CCC(C)CCCCC(=O)*; Dab = NCC[CH](N)C(=O)O
RECORDED METRIC: normalized growth
Write the number on its own, no unit after it.

Some compounds with recorded normalized growth:
{"COMPOUND": "CN(C)C(=N)N=C(N)N", "normalized growth": 1.03}
{"COMPOUND": "NCCc1c[nH]c2ccccc12", "normalized growth": 0.965}
{"COMPOUND": "CC(=O)N[C@@H](Cc1c[nH]c2ccccc12)C(=O)O", "normalized growth": 0.967}
{"COMPOUND": "CNS(=O)(=O)Cc1ccc2[nH]cc(CCN(C)C)c2c1", "normalized growth": 1.03}
{"COMPOUND": "CN(C)CCc1c[nH]c2ccc(CS(=O)(=O)N3CCCC3)cc12", "normalized growth": 1}

Prompt: Need normalized growth of c1ccc2c(Cc3c[nH]c4ccccc34)c[nH]c2c1 , thanks.
Completion: 0.722

Prompt: normalized growth lookup needed for OCc1c[nH]c2ccccc12 , thanks.
Completion: 0.939

Prompt: Which measured normalized growth value corresponds to CCC(C)CCCCC(=O)NC(CCN)C(=O)NC(C(=O)NC(CCN)C(=O)NC1CCNC(=O)C(C(C)O)NC(=O)C(CCN)NC(=O)C(CCN)NC(=O)C(CC(C)C)NC(=O)C(Cc2ccccc2)NC(=O)C(CCN)NC1=O)C(C)O (centres undefined) ({Octanoyl(6-Me)}-[Dab]T[Dab][Dab][Dab]FL[Dab][Dab]T; lactam 4-C; configuration not given here) ?
Completion: 0.978

Prompt: Using the record for CC(=O)O[C@H]1CC[C@]2(C)C3CC(=O)[C@]4(C)C(C(C)=O)=CCC4C3CC[C@H]2C1 (some centres undefined) , report its normalized growth.
Completion: 1
